Values from patent US7205305B2

System: IL-1 production in LPS-stimulated PBMCs
Experimental protocol: Inhibition of IL-1 production in LPS-stimulated PBMCs ("cell")
Assay type: cell-based, human
Condition parameters: Homo sapiens, PBMC
Result type: IC50

Answered cases to consult:
INSERT INTO measurements (molecule, result_type, data_value) VALUES
  ('Cc1cc(F)ccc1-c1cccc(N(C(N)=O)c2c(F)cccc2F)n1 [Compound 410]', 'IC50', '≤ 100 nM'),
  ('O=c1ncn2nc(Sc3ccc(F)cc3)ccc2c1-c1cc2c(cc1Cl)OCO2 [Compound 39]', 'IC50', '≥ 500 nM'),
  ('O=C(CN1CCOCC1)Nc1ccc(C2=C3C=CC(Sc4ccc(F)cc4)=NN3CNC2=O)c(Cl)c1 [Compound 144]', 'IC50', '≤ 100 nM');

query: Find the recorded IC50 belonging to Nc1cc(C(F)(F)F)ccc1SC1=NN2CNC(=O)C(c3c(Cl)cccc3Cl)=C2C=C1 [Compound 126] and report it.
result: 100 to 500 nM

query: Find the recorded IC50 belonging to NC(=O)C(c1cccc(-c2ccccc2/C=N\O)n1)c1c(Cl)cccc1Cl (centres unmarked) [Compound 307] and report it.
result: 100 to 500 nM

query: Find the recorded IC50 belonging to NCc1ccccc1SC1=NN2CNC(=O)C(c3c(Cl)cccc3Cl)=C2C=C1 [Compound 118] and report it.
result: 100 to 500 nM

query: Find the recorded IC50 belonging to Cc1ccccc1-c1cccc(N(C(N)=O)c2c(F)cccc2F)n1 [Compound 403] and report it.
result: ≤ 100 nM

query: Find the recorded IC50 belonging to Cc1ccccc1SC1=NN2CNC(=O)C(c3c(Cl)cccc3Cl)=C2C=C1 [Compound 102] and report it.
result: ≤ 100 nM

query: Find the recorded IC50 belonging to Nc1ccc(Cl)c(-c2c(=O)ncn3nc(Sc4ccc(Br)cc4)ccc23)c1Cl [Compound 37] and report it.
result: 100 to 500 nM
